system: plated rat hepatocytes; assay type: in vitro ADME; conditions: male, Sprague-Dawley, rat, 0.5 h, 50 µM
Observable: CoA Conjugates Detected in Plated Rat Hepatocytes (Total Amount)

Example entries begin here.
{"Compound": "CC(C)C1CC=C(CCC=O)CC1 (centres unmarked)", "Val": "124 % of TBBA-CoA ex BMHCA"}
{"Compound": "CC(C=O)Cc1ccc(C(C)(C)C)cc1 (centres unmarked) [BMHCA, 3-(4-tert-butylphenyl)-2-methylpropanal]", "Val": "100 % of TBBA-CoA ex BMHCA"}
{"Compound": "CC1=C(CCC=O)CCC(C(C)C)C1 (centres unmarked)", "Val": "62 % of TBBA-CoA ex BMHCA"}

Could you share which CoA Conjugates Detected in Plated Rat Hepatocytes (Total Amount) value was measured for CC(C)CC1=CCC(CCC=O)CC1 (centres unmarked) [3-(4-isobutylcyclohex-3-en-1-yl)propanal] ? 74 % of TBBA-CoA ex BMHCA

Could you share which CoA Conjugates Detected in Plated Rat Hepatocytes (Total Amount) value was measured for CC(C)CC1=CCC(CCC=O)C(C)C1 (centres unmarked) ? 86 % of TBBA-CoA ex BMHCA

---

System: plated rat hepatocytes
Type: in vitro ADME
Details: male, Sprague-Dawley, rat, 22 h, 50 µM
Description: Short-term monolayer cultures of cryopreserved primary hepatocytes from rat were prepared in collagen coated 48-well plates to perform metabolic assays in a kinetic manner for up to 22 h. […] CoA conjugates were analyzed with high resolution LC-MS (LC-HRMS) on a Dionex UltiMate 3000 RS HPLC system coupled to a Q-Exactive orbitrap mass spectrometer (Thermo Scientific, Reinach, Switzerland) with electrospray ionization (ESI) in both positive and negative ionization mode. […]
Observable: CoA Conjugates Detected in Plated Rat Hepatocytes (Total Amount)

{"Compound": "CC(C)C1CC=C(CCC=O)CC1 (stereo not shown)", "Tested system": "plated rat hepatocytes", "Val": "31 % of TBBA-CoA ex BMHCA"}
{"Compound": "CC1=C(CCC=O)CCC(C(C)C)C1 (stereo not shown)", "Tested system": "plated rat hepatocytes", "Val": "9 % of TBBA-CoA ex BMHCA"}
{"Compound": "CC(C=O)Cc1ccc(C(C)(C)C)cc1 (stereo not shown) [BMHCA, 3-(4-tert-butylphenyl)-2-methylpropanal]", "Tested system": "plated rat hepatocytes", "Val": "100 % of TBBA-CoA ex BMHCA"}

Could you share which CoA Conjugates Detected in Plated Rat Hepatocytes (Total Amount) value was measured for CC(C)CC1=CCC(CCC=O)CC1 (stereo not shown) [3-(4-isobutylcyclohex-3-en-1-yl)propanal] ? 29 % of TBBA-CoA ex BMHCA

---

Each entry below lists one item and its recorded CoA Conjugates Detected in Plated Rat Hepatocytes (Total Amount) value.
system: plated rat hepatocytes; format: in vitro ADME; details: male, Sprague-Dawley, rat, 4 h, 50 µM

Example entries begin here.
{"Compound": "CC(C)CC1=CCC(CCC=O)CC1 (centres unmarked) [3-(4-isobutylcyclohex-3-en-1-yl)propanal]", "Val": "45 % of TBBA-CoA ex BMHCA"}
{"Compound": "CC(C)C1CC=C(CCC=O)CC1 (centres unmarked)", "Val": "79 % of TBBA-CoA ex BMHCA"}
{"Compound": "CC(C)CC1=CCC(CCC=O)C(C)C1 (centres unmarked)", "Val": "31 % of TBBA-CoA ex BMHCA"}

Could you share which CoA Conjugates Detected in Plated Rat Hepatocytes (Total Amount) value was measured for CC1=C(CCC=O)CCC(C(C)C)C1 (centres unmarked) ? 28 % of TBBA-CoA ex BMHCA

Could you share which CoA Conjugates Detected in Plated Rat Hepatocytes (Total Amount) value was measured for CC(C=O)Cc1ccc(C(C)(C)C)cc1 (centres unmarked) [BMHCA, 3-(4-tert-butylphenyl)-2-methylpropanal] ? 100 % of TBBA-CoA ex BMHCA
